Test system: HeLa cells
Experiment: Confocal laser scanning microscopy and degradation study with PA library and HeLa cells
Assay type: cell-based
Details: d3 relative to d0
Experimental: In general, the procedure for determine whether a PA is degraded or not, is conducted by confocal laser scanning microscopy of Proteostat stained PAs which are added to Hela cells (2 µg peptide added to 20.000 cells). Microscopy is conducted at day 0 (d0, after 30 min of incubation) and at day 3 (d3, after 72 h of incubation). The number of aggregates >10 µm^2 is counted via 3D object counter in imaged in an area of 1008 µm × 1008 µm. […]
Where a SMILES comes first, the peptide text is derived from it. The star is where a group is joined. X1 = CC/C=C\C/C=C\C/C=C\C/C=C\C/C=C\CCCC(=O)*; Palmitoyl = CCCCCCCCCCCCCCCC(=O)*
Measured aggregate number decreases / degraded in presence of HeLa cells within 3 days accompanies every entry in the list below.
Property label: aggregate number decreases / degraded in presence of HeLa cells within 3 days (%)

Molecule | Experimental value
CCCCCCCCCCCCCCCC(=O)N[C@@H](C)C(=O)N[C@@H](CCCCN)C(=O)N[C@@H](C)C(=O)N[C@H](C(=O)NCC(=O)N[C@@H](CCCCN)C(N)=O)C(C)C [Pat31, C16-AKAVGK-NH2] (Palmitoyl-AKAVGK-NH2) | 89
CCCCCCCCCCCCCCCC(=O)N[C@H](C(=O)N[C@H](C(=O)N[C@@H](C)C(=O)N[C@@H](C)C(=O)N[C@@H](Cc1c[nH]cn1)C(=O)N[C@@H](Cc1c[nH]cn1)C(=O)N[C@@H](Cc1c[nH]cn1)C(N)=O)C(C)C)C(C)C [Pat24, C16-VVAAHHH-NH2] (Palmitoyl-VVAAHHH-NH2) | 26
CC/C=C\C/C=C\C/C=C\C/C=C\C/C=C\CCCC(=O)N[C@H](C(=O)N[C@H](C(=O)N[C@H](C(=O)N[C@@H](C)C(=O)N[C@@H](C)C(=O)N[C@@H](C)C(=O)N[C@@H](CCCCN)C(=O)N[C@@H](CCCCN)C(=O)N[C@@H](CCCCN)C(N)=O)C(C)C)C(C)C)C(C)C [Pat10] (X1-VVVAAAKKK-NH2) | 99

* * *

Experiment: TEM of peptide assemblies (fibril formation / assembly)
Type: physicochemical
Conditions: corresponding peptide without hydrophobic moiety
Where a SMILES comes first, the peptide text is derived from it. The star is where a group is joined. X1 = CC/C=C\C/C=C\C/C=C\C/C=C\C/C=C\CCCC(=O)*; Palmitoyl = CCCCCCCCCCCCCCCC(=O)*

Molecule | Assembly without hydrophob residue
CC/C=C\C/C=C\C/C=C\C/C=C\C/C=C\CCCC(=O)N[C@H](C(=O)N[C@H](C(=O)N[C@H](C(=O)N[C@@H](C)C(=O)N[C@@H](C)C(=O)N[C@@H](C)C(=O)N[C@@H](CCCCN)C(=O)N[C@@H](CCCCN)C(=O)N[C@@H](CCCCN)C(N)=O)C(C)C)C(C)C)C(C)C [Pat10] (X1-VVVAAAKKK-NH2) | No
CCCCCCCCCCCCCCCC(=O)N[C@@H](CCCCN)C(=O)N[C@@H](Cc1ccc(O)cc1)C(=O)N[C@H](C(=O)N[C@@H](Cc1c[nH]cn1)C(=O)N[C@@H](CCC(N)=O)C(=O)N[C@@H](CC(N)=O)C(=O)N[C@@H](Cc1ccc(O)cc1)C(=O)N[C@H](C(=O)N[C@@H](CCCCN)C(=O)N[C@@H](C)C(=O)N[C@@H](CC(C)C)C(=O)N[C@@H](C)C(=O)NCC(=O)N[C@@H](CCCCN)C(=O)N[C@@H](CC(C)C)C(=O)N[C@H](C(N)=O)C(C)C)[C@@H](C)O)[C@@H](C)CC [Pat26] (Palmitoyl-KYIHQNYTKALAGKLV-NH2) | No
CCCCCCCCCCCCCCCC(=O)N[C@@H](CCCCN)C(=O)N[C@H](C(=O)N[C@H](C(=O)N[C@@H](CO)C(=O)N[C@@H](Cc1ccccc1)C(=O)N[C@@H](CCCCN)C(N)=O)[C@@H](C)CC)[C@@H](C)CC [Pat32, C16-KIISFK-NH2] (Palmitoyl-KIISFK-NH2) | No
